- Target entity: human M2 receptor (Homo sapiens)
- Sequence (P08172 whole entry): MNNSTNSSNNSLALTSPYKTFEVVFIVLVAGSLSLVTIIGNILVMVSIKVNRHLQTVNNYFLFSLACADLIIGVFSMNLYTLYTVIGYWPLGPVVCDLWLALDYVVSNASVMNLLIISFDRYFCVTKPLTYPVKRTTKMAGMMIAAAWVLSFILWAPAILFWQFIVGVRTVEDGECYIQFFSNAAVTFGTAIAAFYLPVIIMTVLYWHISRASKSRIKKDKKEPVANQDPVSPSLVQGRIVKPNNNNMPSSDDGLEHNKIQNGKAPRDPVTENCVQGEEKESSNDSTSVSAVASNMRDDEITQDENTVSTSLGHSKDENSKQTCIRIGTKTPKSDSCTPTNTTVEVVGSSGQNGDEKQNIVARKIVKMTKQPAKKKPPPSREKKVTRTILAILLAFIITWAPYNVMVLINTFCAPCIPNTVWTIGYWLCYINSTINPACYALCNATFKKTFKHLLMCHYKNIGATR
- Protocol description: SPA GTP (GTPgS) binding curve shift assay, M2
- Format: biochemical
- Condition parameters: M2; MK-4710 concentration 41.2 nM
Endpoint: EC50 (nM)

>  <Compound>
CCCCCOc1nsnc1C1=CCCCN1C [KTX-517]

>  <Target entity>
human M2 receptor (Homo sapiens)

>  <Observed value>
11.9

$$$$

* * *

- Target entity: human M3 receptor (Homo sapiens)
- Construct: expressed in transfected cells
- Sequence (P20309 whole entry): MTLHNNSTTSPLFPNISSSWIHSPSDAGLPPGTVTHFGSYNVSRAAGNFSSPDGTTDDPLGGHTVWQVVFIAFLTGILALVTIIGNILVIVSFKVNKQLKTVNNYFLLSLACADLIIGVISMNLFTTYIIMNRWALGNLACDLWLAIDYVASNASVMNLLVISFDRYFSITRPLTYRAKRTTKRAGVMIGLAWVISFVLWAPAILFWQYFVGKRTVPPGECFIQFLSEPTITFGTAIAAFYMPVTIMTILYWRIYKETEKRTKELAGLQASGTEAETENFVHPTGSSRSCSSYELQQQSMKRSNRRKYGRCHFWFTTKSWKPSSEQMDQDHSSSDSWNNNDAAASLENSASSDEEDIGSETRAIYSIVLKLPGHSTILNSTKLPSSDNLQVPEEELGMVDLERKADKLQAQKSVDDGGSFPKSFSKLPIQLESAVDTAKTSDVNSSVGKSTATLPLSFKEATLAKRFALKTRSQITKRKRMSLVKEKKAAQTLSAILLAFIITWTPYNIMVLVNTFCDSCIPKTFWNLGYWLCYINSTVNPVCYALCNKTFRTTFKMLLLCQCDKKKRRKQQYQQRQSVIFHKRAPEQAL
- Protocol description: HTRF IP-One curve shift assay, M3
- Assay type: cell-based
- Condition parameters: Emraclidine concentration 41.2 nM, read-out: Emax
- Method: HTRF IP-One assays were performed using frozen cell aliquots prepared from CHO-K1 cell lines stably expressing human M1, M3, or M5 receptors. Cells were frozen following typical cell freezing protocols. […] Six μL of IP-1 detection reagents (IP-One Gq HTRF kit, Cisbio Cat #62IPAPEJ) were dispensed to the cells. […] Then, plates were read on an Envision plate reader following the Cisbio guidelines. Raw data for all assays was transmitted directly from plate readers into the Beacon database for processing. […]

>  <Molecule>
CCCCCCOc1nsnc1C1=CCCN(C)C1 [xanomeline, reference compound]

>  <Emax [%]>
81.9

$$$$
>  <Molecule>
CC1OC2(CS1)CN1CCC2CC1 (stereo not shown) [cevimeline, Cevimeline, reference compound]

>  <Emax [%]>
96.7

$$$$
>  <Molecule>
CCCCCOc1nsnc1C1=CCCCN1C

>  <Emax [%]>
45.3

$$$$
>  <Molecule>
CCCCCCCOc1nsnc1C1=CCCCN1C

>  <Emax [%]>
63.9

$$$$
